# cond: [M-H]-; instrument: DT; single field, calibrated with Agilent tune mix (Agilent)

compound: CC(C)(COP(=O)(O)OP(=O)(O)OC[C@H]1O[C@@H](n2cnc3c(N)ncnc32)[C@H](O)[C@@H]1O)[C@@H](O)C(=O)NCCC(=O)NCCS
display.unit: Å²
collision cross section (N2): 232.51
//
compound: Cc1ncc(C[n+]2csc(CCO)c2C)c(N)n1
display.unit: Å²
collision cross section (N2): 160.3
//
compound: Cn1c(=O)[nH]c2[nH]c(=O)[nH]c(=O)c21
display.unit: Å²
collision cross section (N2): 129.35
//
compound: CCCCC[C@H](O)/C=C/[C@@H]1[C@H]2C/C(=C/CCCC(=O)O)O[C@H]2C[C@H]1O
display.unit: Å²
collision cross section (N2): 186.84
//
compound: Nc1nc(=O)c2c([nH]1)NCC1CN(c3ccc(C(=O)NC(CCC(=O)O)C(=O)O)cc3)CN21 (stereo not drawn)
display.unit: Å²
collision cross section (N2): 192.06
//
compound: Cn1cnc(C[C@H](N)C(=O)O)c1
display.unit: Å²
collision cross section (N2): 139.64
//
compound: NC(CCCC(=O)O)C(=O)O (racemic)
display.unit: Å²
collision cross section (N2): 127.69
//
compound: O=C(O)c1ccc([O-])cc1 [4-Hydroxybenzoate]
display.unit: Å²
collision cross section (N2): 119.33

----------
# key: entry, value: collision cross section (N2)
# cond: [M+H]+; instrument: TW; Major Mix IMS/Tof Calibration Kit (Waters)
readout.name: collision cross section (N2)

compound: CCCN1C[C@H](CSC)C[C@@H]2c3cccc4[nH]cc(c34)C[C@H]21 [Pergolide]
observed.result: 177.9 Å²

compound: COc1ccc([C@@H]2Sc3ccccc3N(CCN(C)C)C(=O)[C@@H]2O)cc1
observed.result: 186.3 Å²

compound: CN(C)CCC=C1c2ccccc2CSc2ccccc21 [Dosulepin]
observed.result: 167.3 Å²

compound: CN1CCN(C2=Nc3ccccc3Oc3ccc(Cl)cc32)CC1
observed.result: 175.7 Å²

----------
# cond: [M+H]+; instrument: DT; single field, calibrated with Agilent tune mix (Agilent)

compound: Nc1ncnc2c1ncn2[C@@H]1O[C@H](COP(=O)(O)OP(=O)(O)OC[C@@H](O)[C@@H](O)[C@@H](O)C=O)[C@@H](O)[C@H]1O
display.unit: Å²
collision cross section (N2): 211.4
//
compound: N[C@@H](Cc1cc(I)c(Oc2cc(I)c(O)c(I)c2)c(I)c1)C(=O)O
display.unit: Å²
collision cross section (N2): 216.2
//
compound: CC1=C(CCC(=O)O)c2cc3nc(cc4[nH]c(cc5[nH]c(cc1n2)c(C)c5CCC(=O)O)c(CCC(=O)O)c4C)C(CCC(=O)O)=C3C
display.unit: Å²
collision cross section (N2): 257.2
//
compound: CC(C)(COP(=O)(O)OP(=O)(O)OC[C@H]1O[C@@H](n2cnc3c(N)ncnc32)[C@H](O)[C@@H]1O)[C@@H](O)C(=O)NCCC(=O)NCCS
display.unit: Å²
collision cross section (N2): 238.6
//
compound: C[C@@H]1OC(OP(=O)(O)OP(=O)(O)OC[C@H]2O[C@@H](n3cnc4c(=O)nc(N)[nH]c43)[C@H](O)[C@@H]2O)[C@@H](O)[C@H](O)[C@@H]1O (stereo partly specified)
display.unit: Å²
collision cross section (N2): 217.2
//
compound: O=C(O)[C@@H]1C[C@@H](O)CN1 [Hydroxyproline]
display.unit: Å²
collision cross section (N2): 128.1
//
compound: O=Cc1cc(O)ccc1O
display.unit: Å²
collision cross section (N2): 122
//
compound: CC(=O)CC(=O)SCCNC(=O)CCNC(=O)[C@H](O)C(C)(C)COP(=O)(O)OP(=O)(O)OC[C@H]1O[C@@H](n2cnc3c(N)ncnc32)[C@H](O)[C@@H]1OP(=O)(O)O
display.unit: Å²
collision cross section (N2): 247.8
//
compound: Nc1ncnc2c1ncn2[C@@H]1O[C@H](COP(=O)(O)OP(=O)(O)O)[C@@H](O)[C@H]1O [Adenosine 5'-diphosphate]
display.unit: Å²
collision cross section (N2): 186.1
//
compound: CCCCCCCCCCCCCCC[C@@H](O)[C@@H](N)CO
display.unit: Å²
collision cross section (N2): 188
//
compound: CN1c2c([nH]c(N)nc2=O)NCC1CNc1ccc(C(=O)N[C@H](CCC(=O)O)C(=O)O)cc1 (stereo partly specified) [5-Methyltetrahydrofolate]
display.unit: Å²
collision cross section (N2): 196.4
//
compound: CCCCCCCCCCCCCCCCCC(=O)SCCNC(=O)CCNC(=O)[C@H](O)C(C)(C)COP(=O)(O)OP(=O)(O)OC[C@H]1O[C@@H](n2cnc3c(N)ncnc32)[C@H](O)[C@@H]1OP(=O)(O)O
display.unit: Å²
collision cross section (N2): 302.9
//
compound: N#CC(O)c1ccccc1 (stereo unspecified)
display.unit: Å²
collision cross section (N2): 128.9
//
compound: C[C@]12CCC(=O)C=C1CC[C@@H]1[C@@H]2[C@@H](O)C[C@]2(C=O)[C@@H](C(=O)CO)CC[C@@H]12
display.unit: Å²
collision cross section (N2): 187.7
//
compound: Cc1ncc(C[n+]2csc(CCO)c2C)c(N)n1
display.unit: Å²
collision cross section (N2): 162.4
//
compound: CN(CC(=O)O)/C(N)=N/P(=O)(O)O
display.unit: Å²
collision cross section (N2): 144.4
//
compound: N[C@@H](CCC(=O)N[C@@H](CCC(=O)O)C(=O)O)C(=O)O
display.unit: Å²
collision cross section (N2): 162.6
//
compound: NC(=O)c1cccnc1 [Nicotinamide]
display.unit: Å²
collision cross section (N2): 125.3
//
compound: Cn1c(=O)c2[nH]cnc2n(C)c1=O
display.unit: Å²
collision cross section (N2): 137.6
//
compound: NCCCCN=C(N)N
display.unit: Å²
collision cross section (N2): 128.2
//
compound: Nc1nc(=O)c2nc(CNc3ccc(C(=O)N[C@@H](CCC(=O)O)C(=O)O)cc3)cnc2[nH]1 [Folate]
display.unit: Å²
collision cross section (N2): 195.5

Cited source for all entries: the C3SDB collision cross section collection
